Please respond with reported pKd for every item in the list.
# STUDY TARGET: T1, recombinant human Trop-2-his protein (ACCESSION NO.: NP_002344.2, AA 1-274) (human, UniProt P09758 27-274)
# T1 construct: range 27-274; also called recombinant human Trop-2 protein; recombinant human Trop-2 extracellular domain; not shown: his tag
# T1 sequence (looked up): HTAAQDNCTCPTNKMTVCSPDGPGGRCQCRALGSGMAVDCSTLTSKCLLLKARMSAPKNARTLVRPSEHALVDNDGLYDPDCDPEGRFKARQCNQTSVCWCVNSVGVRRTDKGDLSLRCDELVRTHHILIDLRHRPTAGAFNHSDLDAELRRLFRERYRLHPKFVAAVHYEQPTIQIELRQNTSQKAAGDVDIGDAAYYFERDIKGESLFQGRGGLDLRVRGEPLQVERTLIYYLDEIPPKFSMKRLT
# ASSAY DETAILS: BLI, antibody on AHC sensor, Trop-2-his 60 nM
Quick note: pKd means taking -log10 of the concentration in moles per liter.

Could you tell me which pKd is on file for Sacituzumab (antibody, human IgG1, kappa, V domains shown, expressed in HEK293; also called control antibody Sacituzumab; Saituzumab) VH: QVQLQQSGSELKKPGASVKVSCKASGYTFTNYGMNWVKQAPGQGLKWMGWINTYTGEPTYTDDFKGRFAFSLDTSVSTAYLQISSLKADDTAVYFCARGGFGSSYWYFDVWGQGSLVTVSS VL: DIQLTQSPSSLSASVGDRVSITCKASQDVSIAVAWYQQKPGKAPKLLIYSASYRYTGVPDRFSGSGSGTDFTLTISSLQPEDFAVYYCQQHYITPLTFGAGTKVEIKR ?
9.11

Could you tell me which pKd is on file for h11-4-4 (antibody, human IgG1, kappa, V domains shown) VH: EVQLVQSGAEVKKPGASVKVSCKASGYTFTSYWINWVRQAPGQGLEWMGNIYPSNSYTNYNQKFKDRVTMTRDTSTSTVYMELSSLRSEDTAVYYCSSYRSDGFAYWGQGTLVTVSS VL: EIVLTQSPATLSLSPGERATLSCRASQNIGTSIHWYQQKPGQAPRLLIYFASESISGIPARFSGSGSGTDFTLTISSLEPEDFAVYYCQQSNSWPFTFGGGTKVEIKR ?
9.09

Could you tell me which pKd is on file for h11-4-5 (antibody, human IgG1, kappa, name in Kabat numbering, V domains shown) VH: QVQLVQSGAEVKKPGASVKVSCKASGYTFTSYWINWVRQAPGQGLEWMGNIYPSNSYTNYNQKFKDRVTMTRDTSTSTVYMELSSLRSEDTAVYYCARYRSDGFAYWGQGTLVTVSS VL: EIVLTQSPATLSLSPGERATLSCRASQNIGTSIHWYQQKPGQAPRLLIEFASESISGIPARFSGSGSGTDFTLTISSLEPEDFAVYYCQQSNSWPFTFGGGTKVEIKR ?
8.97
